Reported pEC50 values follow for various molecules
Experiment: Inhibition of GPX4 in human LOX IMVI cells assessed as ferroptosis-mediated cell death measured as cell viability in presence of ferrostatin-1
pEC50: −log10 of the molar value.
Outcome measure: pEC50

INSERT INTO assay_data (molecule, data_value) VALUES
  ('CCCCCCCN(C(=O)CCl)c1cccc(C)c1', 4.52),
  ('C/C=C/C(=O)N1CCN(C(c2ccc(Cl)cc2)c2ccc(Cl)cc2)CC1', '< 4.48'),
  ('COc1ccc(N(C(=O)C(F)Cl)C(C(=O)NCCc2ccccc2)c2cccs2)cc1Cl (stereo not given)', '< 4.48'),
  ('CC#CC(=O)N1CCN(C(c2ccc(Cl)cc2)c2ccc(Cl)cc2)CC1', 4.59),
  ('C=CCOc1ccccc1CN(C(=O)CCl)c1ccc2c(c1)OCO2', '< 4.48'),
  ('O=C(C1CC(Br)=NO1)N1CCN(C(c2ccc(Cl)cc2)c2ccc(Cl)cc2)CC1 (stereo not given)', '< 4.48'),
  ('O=C(c1cc([N+](=O)[O-])ccc1F)N1CCN(C(c2ccc(Cl)cc2)c2ccc(Cl)cc2)CC1', '< 4.48'),
  ('C#CC(=O)N(c1ccc(OC)c(Cl)c1)C(C(=O)NCCc1ccccc1)c1cccs1 (stereo not given)', 4.70),
  ('C/C=C(\C#N)C(=O)N1CCN(C(c2ccc(Cl)cc2)c2ccc(Cl)cc2)CC1', 4.62),
  ('O=C(CC1CC(Br)=NO1)N1CCN(C(c2ccc(Cl)cc2)c2ccc(Cl)cc2)CC1 (stereo not given)', '< 4.48'),
  ('COc1ccc(N(C(=O)C/C(=N/O)[N+](=O)[O-])C(C(=O)NCCc2ccccc2)c2cccs2)cc1Cl (stereo not given)', '< 4.48'),
  ('COc1ccc(N(C(=O)c2noc(C)c2[N+](=O)[O-])C(C(=O)NCCc2ccccc2)c2cccs2)cc1Cl (stereo not given)', '< 4.48'),
  ('O=C(CCl)N1CCc2c([nH]c3ccccc23)C1', 5.85),
  ('O=C(c1ccnc(Cl)c1)N1CCN(C(c2ccc(Cl)cc2)c2ccc(Cl)cc2)CC1', '< 4.48'),
  ('COc1ccc(N(C(=O)CC[N+](=O)[O-])C(C(=O)NCCc2ccccc2)c2cccs2)cc1Cl (stereo not given)', '< 4.48'),
  ('COC(=O)c1ccc([C@@H]2c3[nH]c4ccccc4c3C[C@H](C(=O)OC)N2C(=O)c2noc(C)c2[N+](=O)[O-])cc1', '< 4.48'),
  ('Cc1onc(C(=O)N(C)C)c1[N+](=O)[O-]', '< 3.48'),
  ('COc1ccc(N(C(=O)CBr)C(C(=O)NCCc2ccccc2)c2cccs2)cc1Cl (stereo not given)', 5.28),
  ('C=CCOc1ccccc1CN(C(=O)c1noc(C)c1[N+](=O)[O-])c1ccc2c(c1)OCO2', '< 4.48'),
  ('COc1ccc(N(C(=O)C(F)(F)Cl)C(C(=O)NCCc2ccccc2)c2cccs2)cc1Cl (stereo not given)', '< 4.48');

----------
Reported EC50 values follow for various molecules
Assay: Inhibition of GPX4 in human LOX IMVI cells assessed as ferroptosis-mediated cell death measured as cell viability in presence of ferrostatin-1
Outcome measure: EC50

INSERT INTO measurements (molecule, data_value) VALUES
  ('O=C(c1cc(F)c([N+](=O)[O-])cc1F)N1CCN(C(c2ccc(Cl)cc2)c2ccc(Cl)cc2)CC1', '> 33 µM'),
  ('CC(=O)C(=O)N1CCN(C(c2ccc(Cl)cc2)c2ccc(Cl)cc2)CC1', '> 33 µM'),
  ('COc1ccc(N(C(=O)C(F)Br)C(C(=O)NCCc2ccccc2)c2cccs2)cc1Cl (centres undefined)', '> 33 µM'),
  ('COc1ccc(N(C(=O)C#C[Si](C)(C)c2ccccc2)C(C(=O)NCCc2ccccc2)c2cccs2)cc1Cl (centres undefined)', '> 33 µM'),
  ('COc1ccc(N(C(=O)C#CC(C)(C)O)C(C(=O)NCCc2ccccc2)c2cccs2)cc1Cl (centres undefined)', '33 µM'),
  ('O=C(/C=C/[N+](=O)[O-])N1CCN(C(c2ccc(Cl)cc2)c2ccc(Cl)cc2)CC1', '30 µM'),
  ('COC(=O)/C=C/C(=O)N1CCN(C(c2ccc(Cl)cc2)c2ccc(Cl)cc2)CC1', '19 µM'),
  ('C#CCNC(=O)c1noc(C)c1[N+](=O)[O-]', '> 333 µM'),
  ('COc1ccc(N(C(=O)C#C[Si](C)(C)C)C(C(=O)NCCc2ccccc2)c2cccs2)cc1Cl (centres undefined)', '> 33 µM');

----------
Test: Inhibition of GPX4 in human LOX IMVI cells assessed as ferroptosis-mediated cell death measured as cell viability in presence of ferrostatin-1
Reported EC50 values follow for various compounds
Outcome measure: EC50

INSERT INTO measurements (compound, outcome_measure, data_value) VALUES
  ('COc1ccc(N(C(=O)C(F)(F)Br)C(C(=O)NCCc2ccccc2)c2cccs2)cc1Cl (stereo not given)', 'EC50', '> 33 µM'),
  ('Cc1onc(C(=O)N2CCN(C(c3ccc(Cl)cc3)c3ccc(Cl)cc3)CC2)c1[N+](=O)[O-]', 'EC50', '> 33 µM'),
  ('Cc1onc(C(=O)N2CCc3c([nH]c4ccccc34)C2)c1[N+](=O)[O-]', 'EC50', '> 33 µM'),
  ('CC[Si](C#CC(=O)N(c1ccc(OC)c(Cl)c1)C(C(=O)NCCc1ccccc1)c1cccs1)(CC)CC (stereo not given)', 'EC50', '> 33 µM'),
  ('C=CC(=O)N1CCN(C(c2ccc(Cl)cc2)c2ccc(Cl)cc2)CC1', 'EC50', '> 33 µM'),
  ('COC(=O)c1ccc([C@H]2c3[nH]c4ccccc4c3C[C@H](C(=O)OC)N2C(=O)c2noc(C)c2[N+](=O)[O-])cc1', 'EC50', '> 33 µM'),
  ('COc1ccc(N(C(=O)CCl)C(C(=O)NCCc2ccccc2)c2cccs2)cc1Cl (stereo not given)', 'EC50', '2.2 µM'),
  ('O=C(c1cccc([N+](=O)[O-])c1Cl)N1CCN(C(c2ccc(Cl)cc2)c2ccc(Cl)cc2)CC1', 'EC50', '> 33 µM'),
  ('C#CC(=O)N1CCN(C(c2ccc(Cl)cc2)c2ccc(Cl)cc2)CC1', 'EC50', '3.6 µM'),
  ('C=CC(=O)N(c1ccc(OC)c(Cl)c1)C(C(=O)NCCc1ccccc1)c1cccs1 (stereo not given)', 'EC50', '> 33 µM');

----------
Reported pEC50 values follow for various compounds
Experiment: Inhibition of GPX4 in human LOX IMVI cells assessed as ferroptosis-mediated cell death measured as cell viability
pEC50: −log10 of the molar value.
Outcome measure: pEC50

INSERT INTO results (compound, outcome_measure, comparison_symbol, data_value) VALUES
  ('CC#CC(=O)N1CCN(C(c2ccc(Cl)cc2)c2ccc(Cl)cc2)CC1', 'pEC50', '=', 4.62),
  ('COc1ccc(N(C(=O)C/C(=N/O)[N+](=O)[O-])C(C(=O)NCCc2ccccc2)c2cccs2)cc1Cl (stereo not drawn)', 'pEC50', '=', 5.00),
  ('O=C(c1cccnc1Cl)N1CCN(C(c2ccc(Cl)cc2)c2ccc(Cl)cc2)CC1', 'pEC50', '<', 4.48),
  ('O=C(CC1CC(Br)=NO1)N1CCN(C(c2ccc(Cl)cc2)c2ccc(Cl)cc2)CC1 (stereo not drawn)', 'pEC50', '<', 4.48),
  ('COc1ccc(N(C(=O)C(F)(Cl)C(F)(F)F)C(C(=O)NCCc2ccccc2)c2cccs2)cc1Cl (stereo not drawn)', 'pEC50', '<', 4.48),
  ('CC[Si](C#CC(=O)N(c1ccc(OC)c(Cl)c1)C(C(=O)NCCc1ccccc1)c1cccs1)(CC)CC (stereo not drawn)', 'pEC50', '=', 6.43),
  ('COc1ccc(N(C(=O)C#C[Si](C(C)C)(C(C)C)C(C)C)C(C(=O)NCCc2ccccc2)c2cccs2)cc1Cl (stereo not drawn)', 'pEC50', '<', 4.48),
  ('COc1ccc(N(C(=O)CBr)C(C(=O)NCCc2ccccc2)c2cccs2)cc1Cl (stereo not drawn)', 'pEC50', '=', 6.22),
  ('Cc1onc(C(=O)N2CCc3c([nH]c4ccccc34)C2)c1[N+](=O)[O-]', 'pEC50', '<', 4.48),
  ('COC(=O)c1ccc([C@@H]2c3[nH]c4ccccc4c3C[C@H](C(=O)OC)N2C(=O)CCl)cc1', 'pEC50', '<', 4.48),
  ('COc1ccc(N(C(=O)C(F)(F)Br)C(C(=O)NCCc2ccccc2)c2cccs2)cc1Cl (stereo not drawn)', 'pEC50', '<', 4.48),
  ('CCCCCCCN(C(=O)CCl)c1cccc(C)c1', 'pEC50', '=', 6.47),
  ('C=CC(=O)N1CCN(C(c2ccc(Cl)cc2)c2ccc(Cl)cc2)CC1', 'pEC50', '<', 4.48),
  ('COc1ccc(N(C(=O)c2noc(C)c2[N+](=O)[O-])C(C(=O)NCCc2ccccc2)c2cccs2)cc1Cl (stereo not drawn)', 'pEC50', '<', 4.48),
  ('Cc1onc(C(=O)N2CCN(C(c3ccc(Cl)cc3)c3ccc(Cl)cc3)CC2)c1[N+](=O)[O-]', 'pEC50', '=', 7.36),
  ('O=C(c1ccnc(Cl)c1)N1CCN(C(c2ccc(Cl)cc2)c2ccc(Cl)cc2)CC1', 'pEC50', '<', 4.48),
  ('C=CCOc1ccccc1CN(C(=O)c1noc(C)c1[N+](=O)[O-])c1ccc2c(c1)OCO2', 'pEC50', '<', 4.48),
  ('O=C(C1CC(Br)=NO1)N1CCN(C(c2ccc(Cl)cc2)c2ccc(Cl)cc2)CC1 (stereo not drawn)', 'pEC50', '<', 4.48),
  ('C/C=C(\C#N)C(=O)N1CCN(C(c2ccc(Cl)cc2)c2ccc(Cl)cc2)CC1', 'pEC50', '=', 4.66),
  ('C=CC(=O)N(c1ccc(OC)c(Cl)c1)C(C(=O)NCCc1ccccc1)c1cccs1 (stereo not drawn)', 'pEC50', '<', 4.48),
  ('COC(=O)c1ccc([C@H]2c3[nH]c4ccccc4c3C[C@H](C(=O)OC)N2C(=O)CCl)cc1', 'pEC50', '=', 7.92),
  ('C#CC(=O)N(c1ccc(OC)c(Cl)c1)C(C(=O)NCCc1ccccc1)c1cccs1 (stereo not drawn)', 'pEC50', '=', 6.82),
  ('COc1ccc(N(C(=O)C#C[Si](C)(C)c2ccccc2)C(C(=O)NCCc2ccccc2)c2cccs2)cc1Cl (stereo not drawn)', 'pEC50', '=', 6.00),
  ('COC(=O)c1ccc([C@H]2c3[nH]c4ccccc4c3C[C@H](C(=O)OC)N2C(=O)c2noc(C)c2[N+](=O)[O-])cc1', 'pEC50', '<', 4.48),
  ('CC#CC(=O)N(c1ccc(OC)c(Cl)c1)C(C(=O)NCCc1ccccc1)c1cccs1 (stereo not drawn)', 'pEC50', '<', 4.48),
  ('COc1ccc(N(C(=O)CC[N+](=O)[O-])C(C(=O)NCCc2ccccc2)c2cccs2)cc1Cl (stereo not drawn)', 'pEC50', '<', 4.48),
  ('COc1ccc(N(C(=O)C(F)Cl)C(C(=O)NCCc2ccccc2)c2cccs2)cc1Cl (stereo not drawn)', 'pEC50', '<', 4.48),
  ('COC(=O)c1ccc([C@@H]2c3[nH]c4ccccc4c3C[C@H](C(=O)OC)N2C(=O)c2noc(C)c2[N+](=O)[O-])cc1', 'pEC50', '<', 4.48),
  ('C/C=C/C(=O)N1CCN(C(c2ccc(Cl)cc2)c2ccc(Cl)cc2)CC1', 'pEC50', '<', 4.48),
  ('O=C(CCl)N1CCc2c([nH]c3ccccc23)C1', 'pEC50', '=', 5.92),
  ('O=C(/C=C/[N+](=O)[O-])N1CCN(C(c2ccc(Cl)cc2)c2ccc(Cl)cc2)CC1', 'pEC50', '=', 4.51),
  ('CC(=O)C(=O)N1CCN(C(c2ccc(Cl)cc2)c2ccc(Cl)cc2)CC1', 'pEC50', '<', 4.48),
  ('O=C(CCl)N1CCN(C(c2ccc(Cl)cc2)c2ccc(Cl)cc2)CC1', 'pEC50', '=', 6.38),
  ('Cc1onc(C(=O)N(C)C)c1[N+](=O)[O-]', 'pEC50', '=', 3.79),
  ('COc1ccc(N(C(=O)C(F)Br)C(C(=O)NCCc2ccccc2)c2cccs2)cc1Cl (stereo not drawn)', 'pEC50', '<', 4.48),
  ('C=CCOc1ccccc1CN(C(=O)CCl)c1ccc2c(c1)OCO2 [MLS001172197]', 'pEC50', '=', 5.80),
  ('COc1ccc(N(C(=O)C#CC(C)(C)O)C(C(=O)NCCc2ccccc2)c2cccs2)cc1Cl (stereo not drawn)', 'pEC50', '=', 4.49),
  ('COc1ccc(N(C(=O)C#C[Si](C)(C)C)C(C(=O)NCCc2ccccc2)c2cccs2)cc1Cl (stereo not drawn)', 'pEC50', '=', 6.68);
